// provenance: paper PMC8325362

assay: Checkerboard drug combination assay, cell viability of Vero cells; settings: African green monkey, Vero cells (ATCC CCL-81), Relative cell viability (%), Fig. 4B; Omipalisib 0.00 μM; Remdesivir 1.26 μM
readout: viability at 24 h, 1.26 μM
Put your answer as a value accompanied by its unit after it.

(Q) Requested read-out: viability at 24 h, 1.26 μM. Entry: CCC(CC)COC(=O)[C@H](C)N[P@](=O)(OC[C@H]1O[C@@](C#N)(c2ccc3c(N)ncnn23)[C@H](O)[C@@H]1O)Oc1ccccc1 [Remdesivir]
(A) 87%

----------
experiment: in vitro; settings: African green monkey, Relative cell viability (%), Fig. 4E; Tipifarnib 0.00 μM; Omipalisib 0.98 μM
readout: viability
Put your answer as a value accompanied by its unit after it.

(Q) Requested read-out: viability. Entry: COc1ncc(-c2ccc3nccc(-c4ccnnc4)c3c2)cc1NS(=O)(=O)c1ccc(F)cc1F
(A) 87%
